biological target: 5-hydroxytryptamine receptor 6 (Homo sapiens); test: Mol. Pharmacol. 43:320-327, 1993].
Sequence (P50406 whole entry): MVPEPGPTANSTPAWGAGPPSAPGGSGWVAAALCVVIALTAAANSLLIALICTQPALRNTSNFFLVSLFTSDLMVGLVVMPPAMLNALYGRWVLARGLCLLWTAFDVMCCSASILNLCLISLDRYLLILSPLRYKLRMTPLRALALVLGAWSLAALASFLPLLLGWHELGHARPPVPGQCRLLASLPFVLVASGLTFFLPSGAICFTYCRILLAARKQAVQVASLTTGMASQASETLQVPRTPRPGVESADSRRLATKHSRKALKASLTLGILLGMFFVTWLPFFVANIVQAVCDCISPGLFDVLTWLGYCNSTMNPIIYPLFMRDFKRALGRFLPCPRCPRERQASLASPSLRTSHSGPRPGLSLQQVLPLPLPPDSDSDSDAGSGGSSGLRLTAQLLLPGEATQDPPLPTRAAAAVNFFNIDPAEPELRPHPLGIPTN
pIC50: −log10 of the molar value.
MEASURED_QUANTITY: pIC50

>>> value_observed("CSc1nn2c(C)c(Br)c(C)nc2c1S(=O)(=O)c1ccccc1")
7.30
